target: monoclonal antibody 12G6H5 (“Frida”); assay: inhibition ELISA FIG. 18c, low peptide, 2.5 ng Frida, coat p4073
Readout kind: ELISA signal with competitor
Lab note: write the figure by itself, no unit.

Check out these entries, answers already filled in.
| Binder | ELISA signal with competitor |
| --- | --- |
| CAAFPAHAAADFLQALA [p4435 C-…] | 1.28 |
| CAAFAAHLLADFLQAAA [p4436 C-…] | 1.63 |
| FGFPEHLLVDFLQSLSC [p1208 …-C] | 0.942 |

Exercise: For CFGFPSHLIIEWLQSLS [p4433 C-…] , what is its reported ELISA signal with competitor?
Solution: 1.11
